All values here come from ChEMBL document CHEMBL1811843.

# Tested on: Rattus norvegicus
# Assay Name: Antiinflammatory activity in rat assessed as inhibition of carrageenan-induced paw edema at 50 mg/kg, po measured after 360 min by Plethysmograph
# Assay type: functional
# Condition Notes: 6 h
Readout Kind: inhibition in vivo at 50 mg/kg (%)
Enter your answer as a number in %; do not include the unit.

As a guide, the following entries are already answered.
CS(=O)(=O)c1ccc(-n2c(-c3ccccc3)nc3ccc(Br)cc3c2=O)cc1
49
COc1ccc(-c2nc3ccccc3c(=O)n2-c2ccc(SC)cc2)cc1
40

Q) Lab note: need inhibition in vivo at 50 mg/kg for CS(=O)(=O)c1ccc(-n2c(-c3ccccc3)nc3cc(Cl)ccc3c2=O)cc1 on Rattus norvegicus, anyone have it?
A) 45

Q) Lab note: need inhibition in vivo at 50 mg/kg for COc1ccc(-c2nc3ccccc3c(=O)n2-c2ccc(S(C)(=O)=O)cc2)cc1 on Rattus norvegicus, anyone have it?
A) 46

Q) Lab note: need inhibition in vivo at 50 mg/kg for CSc1ccc(-n2c(-c3ccccc3)nc3cc(F)ccc3c2=O)cc1 on Rattus norvegicus, anyone have it?
A) 40

Q) Lab note: need inhibition in vivo at 50 mg/kg for CS(=O)(=O)c1ccc(-n2c(-c3ccccc3)nc3ccccc3c2=O)cc1 on Rattus norvegicus, anyone have it?
A) 39

Q) Lab note: need inhibition in vivo at 50 mg/kg for COc1ccc(-c2nc3ccc(Br)cc3c(=O)n2-c2ccc(S(C)(=O)=O)cc2)cc1 on Rattus norvegicus, anyone have it?
A) 54

Q) Lab note: need inhibition in vivo at 50 mg/kg for CSc1ccc(-n2c(-c3ccccc3)nc3cc(Cl)ccc3c2=O)cc1 on Rattus norvegicus, anyone have it?
A) 39

Q) Lab note: need inhibition in vivo at 50 mg/kg for COc1ccc(-c2nc3cc(Cl)ccc3c(=O)n2-c2ccc(SC)cc2)cc1 on Rattus norvegicus, anyone have it?
A) 47

Q) Lab note: need inhibition in vivo at 50 mg/kg for CSc1ccc(-n2c(-c3ccccc3)nc3ccc(Br)cc3c2=O)cc1 on Rattus norvegicus, anyone have it?
A) 39

Q) Lab note: need inhibition in vivo at 50 mg/kg for COc1ccc(-c2nc3ccc(Br)cc3c(=O)n2-c2ccc(SC)cc2)cc1 on Rattus norvegicus, anyone have it?
A) 42
